B1: Intersectin-2, residues 1129 to 1183; numbered along this chain, Q9NZM3 (parent)
chain: VCQVIAMYDYAANNEDELSFSKGQLINVMNKDDPDWWQGEINGVTGLFPSNYVKM

Variants of: B1
Assay: abundance fitness (aPCA) (normalised: wild type 0, dead -1); higher = more abundant; growth selection in yeast, the domain comes from the species named
Conditions: Homo sapiens
Hi all, reminder that labels come from abundance fitness, split as low: < -0.1; medium: ≥ -0.1 and < -0.04; high: ≥ -0.04

Examples from the recorded data:
1. G23D
high
2. Y10W
high
3. D33I
low
4. P34Y
low

Which class holds Y8L ? high

Which class holds W37E ? low

Which class holds A12F ? low

Which class holds N30I ? low

Which class holds G39N ? low

Which class holds G23N ? high
